// provenance: ChEMBL document CHEMBL4038334

Each item that follows carries a reported IC50.
Molecular target: Amine oxidase [flavin-containing] B (Homo sapiens)
Sequence (P27338 whole entry): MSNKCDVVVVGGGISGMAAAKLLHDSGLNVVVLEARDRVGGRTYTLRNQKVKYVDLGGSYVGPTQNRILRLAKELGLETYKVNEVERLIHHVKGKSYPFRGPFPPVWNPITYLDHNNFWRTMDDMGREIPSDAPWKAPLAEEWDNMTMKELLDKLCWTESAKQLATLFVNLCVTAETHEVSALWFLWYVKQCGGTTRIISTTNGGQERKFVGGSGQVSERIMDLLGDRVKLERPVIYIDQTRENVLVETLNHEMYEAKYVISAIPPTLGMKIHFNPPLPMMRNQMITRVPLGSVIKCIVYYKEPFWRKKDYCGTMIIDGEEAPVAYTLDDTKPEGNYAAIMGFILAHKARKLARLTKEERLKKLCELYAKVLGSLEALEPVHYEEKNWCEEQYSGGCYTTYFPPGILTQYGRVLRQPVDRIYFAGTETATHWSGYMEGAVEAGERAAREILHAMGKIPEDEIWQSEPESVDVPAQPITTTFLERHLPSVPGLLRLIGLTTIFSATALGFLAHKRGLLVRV
Assay: biochemical
Description: Inhibition of human recombinant microsomal MAOB expressed in baculovirus infected BTI-TN-5B1- 4 cells using p-tyramine as substrate assessed as decrease in H2O2 production after 15 mins by amplex red-based fluorescence assay
Write the numeric value and follow it with the unit.

Worked cases, answers included:
1) COc1ccc2occ(C(=O)Nc3ccccc3)c(=O)c2c1 ... 41.8 nM
2) Cc1ccc(NC(=O)c2cc3cc(C)ccc3oc2=O)cc1 ... 13.9 nM
3) COc1ccc2occ(C(=O)Nc3ccc(C)cc3)c(=O)c2c1 ... 211 nM
4) COc1ccc2occ(C(=O)Nc3cccc(Cl)c3)c(=O)c2c1 ... 3.94 nM
5) COc1ccc2oc(=O)c(C(=O)Nc3ccccc3)cc2c1 ... 5.95 nM

Given the compound `Cc1ccc(NC(=O)c2coc3ccc(C)cc3c2=O)cc1` , what is its reported IC50? 152 nM

Would you kindly share the measured IC50 for `Cc1ccc2oc(=O)c(C(=O)Nc3ccccc3)cc2c1` ? 15.3 nM

Can you look up the measured IC50 of `Cc1cccc(NC(=O)c2coc3ccc(C)cc3c2=O)c1` for me? 17.1 nM

# query: IC50 of entry `COc1ccc2occ(C(=O)Nc3ccc(Cl)cc3)c(=O)c2c1` 10.3 nM

====

Target: Amine oxidase [flavin-containing] B (Homo sapiens, UniProt P27338)
Assay: biochemical
pIC50: −log10 of the molar value.
Returns one of Met or Not met; Met when pIC50 is >= 7.

1. Cc1ccc2oc(=O)c(C(=O)Nc3cccc(O)c3)cc2c1 ... Met
2. Cc1ccc2oc(=O)c(C(=O)Nc3cccc(Cl)c3)cc2c1 ... Met
3. Cc1ccc2oc(=O)c(C(=O)Nc3ccc(O)cc3)cc2c1 ... Not met

Given the entry `COc1ccc2oc(=O)c(C(=O)Nc3cccc(C)c3)cc2c1` , answer whether its pIC50 meets or surpasses 7. Met

Evaluate `COc1ccc2occ(C(=O)Nc3cccc(C)c3)c(=O)c2c1` : pIC50 at minimum 7? Met

====

Target: Amine oxidase [flavin-containing] B (Homo sapiens, UniProt P27338)
Assay: Noncompetitive inhibition of human recombinant microsomal MAOB expressed in baculovirus infected BTI-TN-5B1- 4 cells using p-tyramine as substrate assessed as decrease in H2O2 production by Lineweaver-Burk plot analysis
Recorded pKi, one value per entry.
Please note pKi is a logarithmic value: minus log10 of concentration in mol/L. Answer with that number alone.

1) Cc1ccc2oc(=O)c(C(=O)Nc3cccc(Cl)c3)cc2c1 ... 8.93

--- query ---
I have this compound here, `Cc1ccc2occ(C(=O)Nc3cccc(Cl)c3)c(=O)c2c1` , and I need its recorded pKi. 8.57
